Target: thrombin (Homo sapiens, UniProt P00734)
Assay: Human Thrombin Generation Assay (TGA)
Conditions: concentration that reduces endogenous thrombin potential AUC by 50%; human plasma; read-out: ETP EC50
pEC50: −log10 of the molar value.
MEASURED_ENDPOINT: pEC50

1) CC(=O)OC(C)OC(=O)CCn1cccc(-c2cc(NCc3ccc(Cl)s3)n(C(=O)C(C)(C)C)n2)c1=O (centres unmarked) = 5.89
2) CCOC(=O)CCn1cccc(-c2cc(NCc3ccc(Cl)s3)n(C(=O)C(C)(C)C)n2)c1=O = 5.54
3) CC(C)(C)C(=O)n1nc(-c2cccn(CCC(N)=O)c2=O)cc1NCc1ccc(Cl)s1 = 6.00

1 = CC(C)(C)C(=O)n1nc(-c2cccn(CC(F)(F)C(=O)O)c2=O)cc1NCc1ccc(Cl)s1
2 = C=CCOC(=O)CCn1cccc(-c2cc(NCc3ccc(Cl)s3)n(C(=O)C(C)(C)C)n2)c1=O
Inquiry: Select one: 1 or 2 . Criterion: greater recorded pEC50. Mark your selection by writing its label.
Reply text: 2
(2: 5.72, 1: 5.27)
